molecular target: UniProtKB P11712; experiment: Inhibition of recombinant human CYP2C9 at 3 uM by fluorimetry; format: ADME
Sequence (P11712 whole entry): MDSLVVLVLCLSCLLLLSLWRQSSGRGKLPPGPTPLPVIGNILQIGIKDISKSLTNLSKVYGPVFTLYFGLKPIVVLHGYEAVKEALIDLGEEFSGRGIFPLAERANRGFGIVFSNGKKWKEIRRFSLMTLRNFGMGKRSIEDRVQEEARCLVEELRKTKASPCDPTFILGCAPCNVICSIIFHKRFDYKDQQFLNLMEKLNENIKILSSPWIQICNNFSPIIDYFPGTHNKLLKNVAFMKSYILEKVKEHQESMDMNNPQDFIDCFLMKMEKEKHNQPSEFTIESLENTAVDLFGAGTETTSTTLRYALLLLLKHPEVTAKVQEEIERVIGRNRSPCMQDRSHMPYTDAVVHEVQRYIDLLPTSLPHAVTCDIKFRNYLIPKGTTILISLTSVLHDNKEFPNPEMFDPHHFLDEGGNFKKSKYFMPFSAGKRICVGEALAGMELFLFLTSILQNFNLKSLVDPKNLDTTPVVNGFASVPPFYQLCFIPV
Collected inhibition at 3 µM values appear next to each entry.
Answer format: numeric, % implied, no suffix.

Reported inhibition at 3 µM for C[C@H](NC(=O)c1cccc2c1Oc1ccc(C(F)(F)F)cc1CC2)c1ccc(C(=O)O)cc1 was 17

Reported inhibition at 3 µM for C[C@H](NC(=O)c1cccc2c1Oc1cc(C(F)(F)F)ccc1CC2)c1ccc(C(=O)O)cc1 was 21

Reported inhibition at 3 µM for O=C(O)c1ccc(C2(NC(=O)c3cccc4c3Oc3ccc(C(F)(F)F)cc3CC4)CC2)cc1 was 26

Here is the next item to consider.
Reported inhibition at 3 µM for O=C(O)c1ccc(C2(NC(=O)c3cccc4c3Oc3cc(C(F)(F)F)ccc3CC4)CC2)cc1 was 11

Recorded values, source ChEMBL document CHEMBL1909549.
